- tested.target: T1, senescence-suppressed protein phosphatase SSPP (His-SSPP)
- T1 chain: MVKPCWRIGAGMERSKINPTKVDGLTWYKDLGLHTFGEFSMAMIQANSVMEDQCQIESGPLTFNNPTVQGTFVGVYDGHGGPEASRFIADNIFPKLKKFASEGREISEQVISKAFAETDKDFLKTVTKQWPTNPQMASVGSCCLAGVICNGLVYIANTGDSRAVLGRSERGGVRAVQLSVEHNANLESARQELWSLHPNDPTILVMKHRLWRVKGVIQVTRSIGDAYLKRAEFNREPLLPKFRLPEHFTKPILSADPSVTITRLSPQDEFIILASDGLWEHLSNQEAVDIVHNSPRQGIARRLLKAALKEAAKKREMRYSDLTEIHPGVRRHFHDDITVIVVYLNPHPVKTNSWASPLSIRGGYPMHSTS
- assay.explanation: in vitro pull-down (His-SSPP-bound Ni-NTA beads, anti-GST blot)
- condition.summary: chain shown with the change; 20% pull-down, 10% input loaded; parent: 1.00
The reader will find reported ratio to parent values listed item by item below.
Enter the number alone.

GST-AtSARK-CD, cytoplasmic domain of Arabidopsis thaliana senescence-associated receptor-like kinase AtSARK, wild type, Q8VYT3 S384A (protein) CWYRKKQRRLLILNLNDKQEEGLQGLGNLRSFTFRELHVYTDGFSSKNILGAGGFGNVYRGKLGDGTMVAVKRLKDINGTSGDSQFRMELEMISLAVHKNLLRLIGYCATSGERLLVYPYMPNGAVASKLKSKPALDWNMRKRIAIGAARGLLYLHEQCDPKIIHRDVKAANILLDECFEAVVGDFGLAKLLNHADSHVTTAVRGTVGHIAPEYLSTGQSSEKTDVFGFGILLLELITGLRALEFGKTVSQKGAMLEWVRKLHEEMKVEELLDRELGTNYDKIEVGEMLQVALLCTQYLPAHRPKMSEVVLMLEGDGLAERWAASHNHSHFYHANISFKTISSLSTTSVSRLDAHCNDPTYQMFGSSAFDDDDDHQPLDSFAMELSGPR : 0.23
GST-AtSARK-CD, cytoplasmic domain of Arabidopsis thaliana senescence-associated receptor-like kinase AtSARK, wild type, Q8VYT3 S304A (protein) CWYRKKQRRLLILNLNDKQEEGLQGLGNLRSFTFRELHVYTDGFASKNILGAGGFGNVYRGKLGDGTMVAVKRLKDINGTSGDSQFRMELEMISLAVHKNLLRLIGYCATSGERLLVYPYMPNGSVASKLKSKPALDWNMRKRIAIGAARGLLYLHEQCDPKIIHRDVKAANILLDECFEAVVGDFGLAKLLNHADSHVTTAVRGTVGHIAPEYLSTGQSSEKTDVFGFGILLLELITGLRALEFGKTVSQKGAMLEWVRKLHEEMKVEELLDRELGTNYDKIEVGEMLQVALLCTQYLPAHRPKMSEVVLMLEGDGLAERWAASHNHSHFYHANISFKTISSLSTTSVSRLDAHCNDPTYQMFGSSAFDDDDDHQPLDSFAMELSGPR : 1.08

Next item in the queue.
Prompt: I have this binder here, GST-AtSARK-CD, cytoplasmic domain of Arabidopsis thaliana senescence-associated receptor-like kinase AtSARK, wild type, Q8VYT3 T465A (protein) CWYRKKQRRLLILNLNDKQEEGLQGLGNLRSFTFRELHVYTDGFSSKNILGAGGFGNVYRGKLGDGTMVAVKRLKDINGTSGDSQFRMELEMISLAVHKNLLRLIGYCATSGERLLVYPYMPNGSVASKLKSKPALDWNMRKRIAIGAARGLLYLHEQCDPKIIHRDVKAANILLDECFEAVVGDFGLAKLLNHADSHVTTAVRGAVGHIAPEYLSTGQSSEKTDVFGFGILLLELITGLRALEFGKTVSQKGAMLEWVRKLHEEMKVEELLDRELGTNYDKIEVGEMLQVALLCTQYLPAHRPKMSEVVLMLEGDGLAERWAASHNHSHFYHANISFKTISSLSTTSVSRLDAHCNDPTYQMFGSSAFDDDDDHQPLDSFAMELSGPR , and I need its recorded ratio to parent.
Completion: 0.9
